biological target: S1P1 receptor (Homo sapiens); assay: 35S-GTPγS binding, membranes from CHO cells expressing S1P1; conditions: CHO cell membranes expressing S1P1
Sequence (P21453 whole entry): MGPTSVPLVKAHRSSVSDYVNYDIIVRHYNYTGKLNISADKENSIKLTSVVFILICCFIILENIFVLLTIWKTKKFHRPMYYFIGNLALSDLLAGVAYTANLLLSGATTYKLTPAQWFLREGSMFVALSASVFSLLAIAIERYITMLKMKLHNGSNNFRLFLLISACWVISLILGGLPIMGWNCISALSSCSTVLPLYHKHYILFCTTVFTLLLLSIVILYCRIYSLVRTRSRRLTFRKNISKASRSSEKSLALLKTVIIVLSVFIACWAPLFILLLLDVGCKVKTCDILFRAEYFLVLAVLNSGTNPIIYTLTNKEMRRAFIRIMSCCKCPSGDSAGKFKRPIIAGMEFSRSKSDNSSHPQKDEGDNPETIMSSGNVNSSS
Readout Kind: EC50 (nM)

Here's what some known entries look like.
{"Compound": "CCCCc1c(-c2nc(-c3ccccc3F)no2)nnn1-c1ccccc1F [Example 16]", "Unit Name": "nM", "EC50": 158}
{"Compound": "Fc1ccccc1-c1noc(-c2nnn(-c3ccccc3F)c2C2CCOCC2)n1 [Example 59]", "Unit Name": "nM", "EC50": 154}
{"Compound": "OCC1CN(Cc2ccc(-c3noc(-c4nnn(-c5ccccc5F)c4-c4ccncc4)n3)cc2)CCO1 (stereo not shown) [Example 143]", "Unit Name": "nM", "EC50": 118}
{"Compound": "COc1ccc(-c2noc(-c3nnn(-c4ccccc4F)c3-c3ccncc3)n2)cc1 [Example 48]", "Unit Name": "nM", "EC50": 127}
{"Compound": "CC(=O)N1CCc2cc(-c3noc(-c4nnn(-c5ccccc5F)c4-c4ccncc4)n3)ccc21 [Example 153]", "Unit Name": "nM", "EC50": 90}
{"Compound": "OC1CCN(Cc2ccc(-c3noc(-c4nnn(-c5ccccc5F)c4-c4ccncc4)n3)cc2)CC1 [Example 141]", "Unit Name": "nM", "EC50": 74}
{"Compound": "COCCNCc1cccc(-c2noc(-c3nnn(-c4ccccc4F)c3-c3ccncc3)n2)c1 [Example 147]", "Unit Name": "nM", "EC50": 577}
{"Compound": "COCCN(C)Cc1ccc(-c2noc(-c3nnn(-c4ccccc4F)c3-c3ccncc3)n2)cc1 [Example 166]", "Unit Name": "nM", "EC50": 218}

I. Fc1ccccc1-n1nnc(-c2nc(-c3ccc(C4OCCO4)cc3)no2)c1-c1ccncc1 [Example 110]
II. O=C(O)[C@H]1CC[C@@H](NCc2ccc(-c3noc(-c4nnn(-c5ccccc5F)c4-c4ccncc4)n3)cc2)C1 [Example 169]
III. O=C(O)C1CCCN(Cc2ccc(-c3noc(-c4nnn(-c5ccccc5F)c4-c4ccncc4)n3)cc2)C1 (stereo not shown) [Example 158]
IV. Fc1ccccc1-n1nnc(-c2nc(-c3ccc4[nH]ccc4c3)no2)c1-c1ccncc1 [Example 43]
Input: Arrange by EC50, high to low. Answer by naming the labels in the order asked.
Output: I, III, IV, II
